meta.source: PubChem BioAssay AID2289

testName: qHTS Assay for Modulators of miRNAs and/or Inhibitors of miR-21; also: potency is read from the fitted curve at half-maximal effect; nearly all actives have a fitted effect of over 55% in size
particulars: HeLa miR-21-FLuc reporter, luciferase luminescence, 48 h; actives lower the signal
Screen size: about 340,000 compounds; about 3,300 (0.97%) were called active. Not shown: some 9% with an inconclusive outcome. This is one part of the list.
valueKind: Potency

Entry CSc1ncc(-c2ccc(Cl)cc2)[nH]1 ; Potency = 1.65 µM (active)

Entry C=CCn1c(C)csc1=Nc1ccc(C(C)=O)cc1 ; Potency = 10.4 µM (active)

Entry COc1cccc2cc(-c3nc(-c4ccccc4F)no3)c(=O)oc12 ; Potency = 0.185 µM (active)

Entry COc1cccc2cc(-c3ccccc3)c(=O)oc12 ; Potency = 1.65 µM (active)

Entry O=C(Cc1cccs1)N/N=C/C=C/c1ccccc1[N+](=O)[O-] ; Potency = 6.56 µM (active)

----------
testName: qHTS Assay for Modulators of miRNAs and/or Inhibitors of miR-21; also: potency is read from the fitted curve at half-maximal effect; nearly all actives have a fitted effect of over 55% in size
particulars: HeLa miR-21-FLuc reporter, luciferase luminescence, 48 h; actives lower the signal
In all, about 340,000 compounds went through this assay and about 3,300 (0.97%) were called active. Inconclusive results (about 9%) are left out. Some of the results follow.
valueKind: Potency

Entry CC(C)(C)C(=O)Nc1ccc(-c2nc3ccc(NC(=O)C(C)(C)C)cc3[nH]2)cc1 ; Potency = 0.414 µM (active)

Entry O=C1/C(=C/c2ccccc2)CCCc2ccccc21 ; Potency = 7.36 µM (active)

Entry CCOC(=O)C1(Cc2cccc(OC)c2)CCCN(C(=O)CCN2CCCO2)C1 (stereo not drawn) ; Potency = 5.85 µM (active)

Entry Cc1cccn2c1nc(=S)n2C(=O)c1ccco1 ; Potency = 1.04 µM (active)

Entry COc1ccccc1OCc1nc(-c2cccc(C)c2)no1 ; Potency = 6.56 µM (active)

Entry CC(=O)Nc1ccc2nc(-c3cccs3)[nH]c2c1 ; Potency = 9.27 µM (active)

Entry Cc1cc(Nc2ccccc2)nc2cc(O)ccc12 ; Potency = 13.1 µM (active)

Entry O/N=C(/CCc1ccccc1)c1ccc2c(c1)OCCO2 ; Potency = 7.36 µM (active)

Entry O=C(c1ccccc1)c1ccc2c(c1)OCCCO2 ; Potency = 2.07 µM (active)

Entry CC1CCN(C(=O)CSCc2ccc(Cl)cc2)CC1 ; Potency = 11.7 µM (active)

Entry Cc1cc(C)c2c(N)c(C(=O)N/N=C/c3cccs3)sc2n1 ; Potency = 1.47 µM (active)

Entry Cc1nc(N)sc1N=Nc1ccccc1C(F)(F)F ; Potency = 5.21 µM (active)

Entry COc1cccc(-c2noc(COc3ccccc3Cl)n2)c1 ; Potency = 16.5 µM (active)

Entry COc1cc(/C=N/O)ccc1OCc1ccc(Cl)cc1 ; Potency = 0.369 µM (active)

Entry COc1cc(/C=N/O)ccc1OCc1ccccc1Cl ; Potency = 2.93 µM (active)

Entry Cc1nc(N)sc1N=Nc1ccc(F)cc1 ; Potency = 4.65 µM (active)

Entry Cc1cccc2nc(=S)n(C(=O)c3ccco3)n12 ; Potency = 0.521 µM (active)

Entry COc1cc(/C=N/O)ccc1OCc1ccc([N+](=O)[O-])cc1 ; Potency = 3.29 µM (active)

----------
testName: qHTS Assay for Modulators of miRNAs and/or Inhibitors of miR-21; also: potency is read from the fitted curve at half-maximal effect; nearly all actives have a fitted effect of over 55% in size
particulars: HeLa miR-21-FLuc reporter, luciferase luminescence, 48 h; actives lower the signal
The campaign covered roughly 340,000 compounds. About 3,300 (0.97%) were called active. Not shown: some 9% with an inconclusive outcome. The list shows a part of the results.
valueKind: Potency

Entry CCCOc1cccc(C(=O)Nc2ccc(Br)cc2F)c1 ; Potency = 1.85 µM (active)

Entry CN1C(=O)/C(=C\c2cc(Br)cs2)c2ccccc21 ; Potency = 16.5 µM (active)

Entry Cc1ccc(/C(N)=N/OC(=O)c2ccc3c(c2)OCO3)cc1 ; Potency = 0.464 µM (active)

Entry C/C(=N/NC(=O)c1ccccc1)c1ccc(NC(=O)C(F)(F)F)cc1 ; Potency = 4.65 µM (active)

Entry COc1cccc(-c2cc(C(=O)N3C(C)CCCC3C)no2)c1 (stereo not given) ; Potency = 3.29 µM (active)

Entry C/C(=N\NC(=O)c1nn(C)cc1Br)c1ccc(NC(=O)c2ccncc2)cc1 ; Potency = 18.5 µM (active)

Entry CCN(CC)c1nc(C)nc2c1cnn2CCc1ccccc1 ; Potency = 5.85 µM (active)

Entry Cc1ccc2c(CNCc3ccco3)cc(=O)oc2c1 ; Potency = 9.27 µM (active)

Entry C/C(=N\NC(=O)c1nn(C)c(C)c1Br)c1cccc(NC(=O)c2ccoc2C)c1 ; Potency = 3.69 µM (active)

Entry O=C(Nc1ccn(Cc2ccccc2)n1)c1n[nH]c([N+](=O)[O-])c1Cl ; Potency = 2.07 µM (active)

----------
testName: qHTS Assay for Modulators of miRNAs and/or Inhibitors of miR-21; also: potency is read from the fitted curve at half-maximal effect; nearly all actives have a fitted effect of over 55% in size
particulars: HeLa miR-21-FLuc reporter, luciferase luminescence, 48 h; actives lower the signal
Hit rate of the full screen: of about 340,000 compounds, about 3,300 (0.97%) were called active. Inconclusive results (about 9%) are left out. The list shows a part of the results.
valueKind: Potency

Entry COc1ccccc1N=c1oc2cc(O)ccc2cc1C(=O)NCC1CCCO1 (stereo not given) ; Potency = 9.27 µM (active)

Entry Cc1ccccc1Cn1nnc(-c2ccc3c(c2)OCO3)n1 ; Potency = 16.5 µM (active)

Entry CC(=O)c1sc(Nc2nc3cc4c(cc3s2)OCO4)nc1C ; Potency = 1.85 µM (active)

Entry O=C(/C=C\c1ccco1)c1ccc(NC(=O)c2ccco2)cc1 ; Potency = 13.1 µM (active)

Entry CSc1nc2ccc(NC(=O)c3ccco3)cc2s1 ; Potency = 1.47 µM (active)

Entry Cc1ccc2c(c1)c1ncnc(N3CCOCC3)c1n2C ; Potency = 13.1 µM (active)

Entry CCOC(=O)c1sc(=NC(=O)c2ccc(Cl)s2)n(C)c1C ; Potency = 0.233 µM (active)

Entry CN(C)c1ccc(C(=O)/C=C/c2ccccc2)cc1 ; Potency = 5.21 µM (active)

Entry COc1ccc(NC(=S)N2CCC(c3ccccc3)C2)cc1 (stereo not given) ; Potency = 1.65 µM (active)

Entry CCOC(=O)c1sc(=NC(=O)c2cccs2)n(C)c1C ; Potency = 0.293 µM (active)

Entry Cc1nc2ccc(NC(=O)c3ccco3)cc2s1 ; Potency = 7.36 µM (active)

Entry Cc1cc(NC(=O)c2ccco2)ccc1-n1cnnn1 ; Potency = 7.36 µM (active)

Entry Cc1ccc2c(c1)c1ncnc(N3CCC4(CC3)OCCO4)c1n2C ; Potency = 7.36 µM (active)

Entry CCOC(=O)c1sc(NC(=O)c2ccccc2)cc1C ; Potency = 0.521 µM (active)

Entry C/C(=N\Nc1nc2ccccc2s1)c1ccc2c(c1)OCO2 ; Potency = 10.4 µM (active)

Entry Cc1cc(NC(=O)c2ccccc2[N+](=O)[O-])ccc1Br ; Potency = 7.36 µM (active)

Entry O=C(/C=C/c1ccco1)Nc1ccc(N2CCCC2)cc1 ; Potency = 1.65 µM (active)

Entry COc1ccc(NC(=S)N/C(=N/CS(=O)(=O)c2ccccc2)c2ccccc2)cc1 ; Potency = 5.21 µM (active)

Entry O=C(CSc1nnc(-c2ccc(C(F)(F)F)cn2)o1)Nc1cccc(Cl)c1 ; Potency = 4.14 µM (active)

Entry O=C(Nc1ccc(NC(=O)c2cccs2)cc1)c1ccco1 ; Potency = 8.26 µM (active)

Entry N#Cc1c(N2CCOCC2)nsc1-c1ccccc1 ; Potency = 13.1 µM (active)

Entry O=C(COc1ccccc1[N+](=O)[O-])Nc1ccc(Br)cc1 ; Potency = 3.29 µM (active)

Entry Cc1ccc(NC(=O)C2C3CCCCC32)cc1[N+](=O)[O-] (stereo not given) ; Potency = 13.1 µM (active)

Entry COc1ncnc2c1oc1ccccc12 ; Potency = 8.26 µM (active)

Entry CCOC(=O)c1sc(=NC(=O)c2ccccc2Br)n(C)c1C ; Potency = 1.04 µM (active)

Entry O=C(Cn1nnc(-c2ccc3c(c2)OCO3)n1)Nc1ccccc1C(=O)O ; Potency = 14.7 µM (active)

Entry Cc1c(-c2nnc(SCC(=O)Nc3ccccc3F)o2)nnn1-c1ccc(F)cc1 ; Potency = 2.93 µM (active)

Entry COc1cccc(C(=O)Nc2ccc(C(F)(F)F)n(C)c2=O)c1 ; Potency = 1.47 µM (active)

Entry N#Cc1c(N2CCCC2)nsc1-c1ccccc1 ; Potency = 16.5 µM (active)

Entry CC(=O)c1ccc(Oc2ncnc3c2oc2ccccc23)cc1 ; Potency = 0.927 µM (active)

Entry N#Cc1c(N2CCOCC2)nsc1-c1ccc(C(F)(F)F)cc1 ; Potency = 5.85 µM (active)

Entry CCOC(=O)c1sc(NC(=O)C2CCC2)cc1C ; Potency = 4.65 µM (active)

Entry CC(C)COc1ccc(C(=O)Nc2ccccc2[N+](=O)[O-])cc1 ; Potency = 8.26 µM (active)

Entry FC(F)(F)c1cc(Cl)c2nc(-c3ccccc3)cn2c1 ; Potency = 0.369 µM (active)

Entry COc1ccc(OCCN2C(=O)c3cccc(N)c3C2=O)cc1 ; Potency = 14.7 µM (active)

Entry Cc1ccc(NC(=O)c2ccc(C(C)(C)C)cc2)cc1[N+](=O)[O-] ; Potency = 5.21 µM (active)

Entry Fc1ccc2nc(Nc3nc4cc5c(cc4s3)OCO5)sc2c1 ; Potency = 1.65 µM (active)

Entry CC(=O)c1sc(NC(=O)c2ccccc2F)nc1-c1ccccc1 ; Potency = 3.29 µM (active)

Entry c1ccc2sc(Nc3nc4cc5c(cc4s3)OCO5)nc2c1 ; Potency = 3.69 µM (active)

Entry COc1ccc(Oc2ncnc3c2oc2ccccc23)cc1 ; Potency = 11.7 µM (active)
